The values you see were collected from ChEMBL document CHEMBL1133580.

- target.or.system: Protein farnesyltransferase (Rattus norvegicus, UniProt Q02293+Q04631)
- test.name: In vitro inhibition of Farnesyltransferase (FT) by using FT [3H]-SPA kit.
value.type: IC50

Req: Item under review: O=C1c2cc([N+](=O)[O-])cc(C(=O)N3CCCCC3)c2-c2c1cc([N+](=O)[O-])cc2[N+](=O)[O-] . Reported IC50?
Resp: 96 µM
